Sourced from patent US20260062422A1

# System: T-Rex 293 cell line SC3 cells lacking increased expression of androgen receptor protein
# ASSAY REMARKS: Cellular growth inhibition, T-Rex 293 SC3 cells without doxycycline, CellTiter-Glo
# Assay type: cell-based
# EXPERIMENTAL CONDITIONS: 72 h, T-Rex 293 SC3 cells not exposed to doxycycline, CellTiter-Glo 2.0
ASSAY ENDPOINT: GI50

# input So what does the record say about GI50 for Cc1sc2c(c1C)C(c1ccc(OC3CC4(C3)CC3(CCN(c5ncc(C(=O)N[C@H]6C(C)(C)[C@H](Oc7ccc(C#N)c(Cl)c7)C6(C)C)cn5)CC3)C4)cc1)=N[C@@H](C)c1nnc(C)n1-2 [Compound I-411] ?
# output > 3000 nM

# input Given the molecule Cc1sc2c(c1C)C(c1ccc(CCCOC3CCN(c4ncc(C(=O)N[C@H]5C(C)(C)[C@H](Oc6ccc(C#N)c(Cl)c6)C5(C)C)cn4)CC3)cc1)=N[C@@H](Cc1cnccn1)c1nnc(C)n1-2 [Compound I-277] , what is its reported GI50?
# output > 3000 nM

# input Param item = Cc1sc2c(c1C)C(c1ccc(C#CCC3CCN(c4ncc(C(=O)N[C@H]5C(C)(C)[C@H](Oc6ccc(C#N)c(Cl)c6)C5(C)C)cn4)CC3)cc1)=N[C@H](Cc1ncco1)c1nnc(C)n1-2 [Compound I-58] ; retrieve measured GI50.
# output > 3000 nM

* * *

pKd: −log10 of the molar value.
# pKd measurements, system: androgen receptor (Homo sapiens, UniProt P10275)
# Sequence (P10275 whole entry T878A, form open): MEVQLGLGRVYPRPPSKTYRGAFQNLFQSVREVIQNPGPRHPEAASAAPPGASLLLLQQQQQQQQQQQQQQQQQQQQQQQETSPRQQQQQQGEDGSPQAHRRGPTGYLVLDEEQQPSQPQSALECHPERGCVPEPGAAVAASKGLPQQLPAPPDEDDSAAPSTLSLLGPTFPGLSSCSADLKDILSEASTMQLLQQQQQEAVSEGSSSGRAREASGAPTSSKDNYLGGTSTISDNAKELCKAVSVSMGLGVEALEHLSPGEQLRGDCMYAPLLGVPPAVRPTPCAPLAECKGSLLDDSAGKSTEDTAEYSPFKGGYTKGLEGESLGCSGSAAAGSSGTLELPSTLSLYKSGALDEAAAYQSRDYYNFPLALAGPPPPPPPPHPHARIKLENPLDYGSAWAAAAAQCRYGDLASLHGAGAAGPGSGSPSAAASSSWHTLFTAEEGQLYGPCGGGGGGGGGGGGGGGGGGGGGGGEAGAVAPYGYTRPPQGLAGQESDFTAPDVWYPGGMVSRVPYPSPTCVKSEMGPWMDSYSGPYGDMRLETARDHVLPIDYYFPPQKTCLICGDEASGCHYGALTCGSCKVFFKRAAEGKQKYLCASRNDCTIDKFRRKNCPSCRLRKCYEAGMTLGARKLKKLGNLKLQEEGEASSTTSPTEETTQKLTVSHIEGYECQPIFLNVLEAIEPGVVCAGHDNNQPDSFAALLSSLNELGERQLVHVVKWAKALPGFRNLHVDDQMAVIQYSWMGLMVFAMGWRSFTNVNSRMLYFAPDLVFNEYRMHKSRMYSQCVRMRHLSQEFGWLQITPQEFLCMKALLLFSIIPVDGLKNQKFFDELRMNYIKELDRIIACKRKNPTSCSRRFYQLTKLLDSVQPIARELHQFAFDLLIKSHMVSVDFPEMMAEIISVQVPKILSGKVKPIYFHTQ

# input Would you kindly share the measured pKd for Cc1sc2c(c1C)C(c1ccc(Cl)cc1)=N[C@@H](CC(=O)NCCCN1CCN(CCCN(C)c3ncc(C(=O)N[C@H]4C(C)(C)[C@H](Oc5ccc(C#N)c(Cl)c5)C4(C)C)cn3)CC1)c1nnc(C)n1-2 ?
# output > 7.30

# input Could you share which pKd value was measured for Cc1sc2c(c1C)C(c1ccc(Cl)cc1)=N[C@@H](CC(=O)NCCOCCOCCOCC1CCN(c3ncc(C(=O)N[C@H]4C(C)(C)[C@H](Oc5ccc(C#N)c(Cl)c5)C4(C)C)cn3)CC1)c1nnc(C)n1-2 ?
# output > 7.30

# input Fill blank: measured pKd of the compound CCNC(=O)C[C@@H]1N=C(c2cccc(OCCOC3CCN(c4ncc(C(=O)N[C@H]5C(C)(C)[C@H](Oc6ccc(C#N)c(Cl)c6)C5(C)C)cn4)CC3)c2)c2c(sc(C)c2C)-n2c(C)nnc21 is ____.
# output > 7.30

* * *

# System: T-Rex 293 cell line SC3 cells lacking increased expression of androgen receptor protein
# ASSAY REMARKS: Cellular growth inhibition, T-Rex 293 SC3 cells without doxycycline, CellTiter-Glo
# Type: cell-based
# EXPERIMENTAL CONDITIONS: 72 h, T-Rex 293 SC3 cells not exposed to doxycycline, CellTiter-Glo 2.0
ASSAY ENDPOINT: GI50

# input Entry under review: Cc1sc2c(c1C)C(c1ccc([C@H]3CC[C@@]4(C3)CN(c3ncc(C(=O)N[C@H]5C(C)(C)[C@H](Oc6ccc(C#N)c(Cl)c6)C5(C)C)cn3)CCO4)cc1)=N[C@@H](Cc1ncco1)c1nnc(C)n1-2 [Compound I-428] . Reported GI50?
# output > 3 µM

# input What value of measured GI50 is listed for Cc1sc2c(c1C)C(c1ccc(CC3CN(C4CCN(c5ncc(C(=O)N[C@H]6C(C)(C)[C@H](Oc7ccc(C#N)c(Cl)c7)C6(C)C)cn5)C4)C3)cc1)=N[C@@H](Cc1ncco1)c1nnc(C)n1-2 (some centres unmarked) [Compound I-154] ?
# output < 0.5 µM

# input // lookup GI50 for CCNC(=O)C[C@@H]1N=C(c2ccc(N3CCC(OC4CN(c5ncc(C(=O)N[C@H]6C(C)(C)[C@H](Oc7ccc(C#N)c(Cl)c7)C6(C)C)cn5)C4)CC3)cc2)c2c(sc(C)c2C)-n2c(C)nnc21 [Compound I-118]
# output 0.5 to 1.5 µM

# input Dear colleague, I am looking for the recorded GI50 of the following compound: Cc1sc2c(c1C)C(c1ccc(CC3CC4(CCN(c5cnc(C(=O)N[C@H]6C(C)(C)[C@H](Oc7ccc(C#N)c(Cl)c7)C6(C)C)cn5)CC4)C3)cc1)=N[C@@H](C)c1nnc(C)n1-2 [Compound I-448]
# output > 3 µM

# input Requested field: GI50. Item: Cc1sc2c(c1C)C(c1ccc(CCC[C@@H]3CCCN(c4ncc(C(=O)N[C@H]5C(C)(C)[C@H](Oc6ccc(C#N)c(Cl)c6)C5(C)C)cn4)C3)cc1)=N[C@@H](C)c1nnc(C)n1-2 [Compound I-353]
# output > 3 µM

* * *

# System: T-Rex 293 cell line SC3 cells lacking increased expression of androgen receptor protein
# ASSAY REMARKS: Cellular growth inhibition, T-Rex 293 SC3 cells without doxycycline, CellTiter-Glo
# Assay type: cell-based
# EXPERIMENTAL CONDITIONS: 72 h, T-Rex 293 SC3 cells not exposed to doxycycline, CellTiter-Glo 2.0
Provide the reported GI50 of each item.

# input # query: GI50 of entry Cc1sc2c(c1C)C(c1ccc(CC3CC4(CCN(c5ncc(C(=O)N[C@H]6C(C)(C)[C@H](Oc7ccc(C#N)c(Cl)c7)C6(C)C)cn5)CC4)C3)cc1)=N[C@@H](C)c1nnc(C)n1-2
# output 1500 to 3000 nM

# input Returns the measured GI50 for the input compound. Input: Cc1sc2c(c1C)C(c1ccc(Cl)cc1)=NC(CC(=O)NCCOCCCCOC1CCN(c3ncc(C(=O)N[C@H]4C(C)(C)[C@H](Oc5ccc(C#N)c(Cl)c5)C4(C)C)cn3)CC1)c1nnc(C)n1-2 (stereo partly drawn)
# output < 500 nM

# input Sample Cc1sc2c(c1C)C(c1ccc(O[C@H]3CCC4(C3)CN(c3ncc(C(=O)N[C@H]5C(C)(C)[C@H](Oc6ccc(C#N)c(Cl)c6)C5(C)C)cn3)C4)cc1)=N[C@@H](Cc1ncco1)c1nnc(C)n1-2 — what was its GI50?
# output < 500 nM

# input Would you kindly share the measured GI50 for Cc1sc2c(c1C)C(c1ccc(CN3CC4(CCCN(c5ncc(C(=O)N[C@H]6C(C)(C)[C@H](Oc7ccc(C#N)c(Cl)c7)C6(C)C)cn5)C4)C3)cc1)=N[C@@H](Cc1ncco1)c1nnc(C)n1-2 ?
# output < 500 nM

# input What value of GI50 has been reported for the following compound? COCC[C@@H]1N=C(c2ccc(OC3CC4(CCCN(c5ncc(C(=O)N[C@H]6C(C)(C)[C@@H](Oc7ccc(C#N)c(Cl)c7)C6(C)C)cn5)C4)C3)cc2)c2c(sc(C)c2C)-n2c(C)nnc21
# output > 3000 nM

# input I have this compound here, Cc1sc2c(c1C)C(c1ccc(C(C)(C)CN3CC4(CCCN(c5ncc(C(=O)NC6C(C)(C)C(Oc7ccc(C#N)c(Cl)c7)C6(C)C)cn5)C4)C3)cc1)=N[C@@H](Cc1ncco1)c1nnc(C)n1-2 (stereo partly drawn) , and I need its recorded GI50.
# output 500 to 1500 nM

# input Form field: reported GI50 of CCNC(=O)C[C@@H]1N=C(c2ccc(N(C)C3CC(OC4CCN(c5ncc(C(=O)N[C@H]6C(C)(C)[C@H](Oc7ccc(C#N)c(Cl)c7)C6(C)C)cn5)CC4)C3)cc2)c2c(sc(C)c2C)-n2c(C)nnc21 (stereo partly drawn)
# output 500 to 1500 nM

# input Requested field: GI50. Item: CCNC(=O)C[C@@H]1N=C(c2ccc(OCCCCCCOC3CCN(c4ncc(C(=O)N[C@H]5C(C)(C)[C@H](Oc6ccc(C#N)c(Cl)c6)C5(C)C)cn4)CC3)cc2)c2c(sc(C)c2C)-n2c(C)nnc21
# output 500 to 1500 nM

# input Recorded GI50 for Cc1sc2c(c1C)C(c1ccc(CC[C@H]3C[C@@]4(CCCN(c5ncc(C(=O)N[C@H]6C(C)(C)[C@H](Oc7ccc(C#N)c(Cl)c7)C6(C)C)cn5)C4)C3)cc1)=N[C@@H](Cc1ncco1)c1nnc(C)n1-2 , please?
# output > 3000 nM

* * *

Give measured GI50 for each item. Keep answers brief.
# System: T-Rex 293 cell line SC3 cells lacking increased expression of androgen receptor protein
# ASSAY REMARKS: Cellular growth inhibition, T-Rex 293 SC3 cells without doxycycline, CellTiter-Glo
# Type: cell-based
# EXPERIMENTAL CONDITIONS: 72 h, T-Rex 293 SC3 cells not exposed to doxycycline, CellTiter-Glo 2.0

# input Entry under review: Cc1sc2c(c1C)C(c1ccc(NCC3CC4(C3)CN(c3ncc(C(=O)N[C@H]5C(C)(C)[C@H](Oc6ccc(C#N)c(Cl)c6)C5(C)C)cn3)C4)cc1)=N[C@@H](Cc1ncco1)c1nnc(C)n1-2 . Reported GI50?
# output < 0.5 µM

# input Tell me the measured GI50 of Cc1sc2c(c1C)C(c1ccc(NCC(=O)N3CCC(c4ncc(C(=O)N[C@H]5C(C)(C)[C@H](Oc6ccc(C#N)c(Cl)c6)C5(C)C)cn4)CC3)cc1)=N[C@@H](Cc1ncco1)c1nnc(C)n1-2 , please.
# output > 3 µM

# input Entry Cc1sc2c(c1C)C(c1ccc(CNC(=O)C3CCN(c4ncc(C(=O)N[C@H]5C(C)(C)[C@H](Oc6ccc(C#N)c(Cl)c6)C5(C)C)cn4)CC3)cc1)=N[C@@H](Cc1ncco1)c1nnc(C)n1-2 has what GI50?
# output 1.5 to 3 µM
